- System name: Aβ1-42 (Homo sapiens, UniProt P05067)
- Construct: dissolving Aβ1-42 or Tau-RD3 (Tau repeat domain 3) monomers in DMSO
- Sequence (P05067 672-713 limits assumed): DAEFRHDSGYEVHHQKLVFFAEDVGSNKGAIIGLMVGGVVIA
- Protocol notes: Amyloid-beta disaggregation test by Thioflavin-T analysis
- Assay type: biochemical
- Condition parameters: Aβ1-42 50 µM aggregated 24 hours, then compound 0 - 500 µM for 48 hours at 37 °C; concentration disaggregating 50 % of aggregates vs control; read-out: EC50 (µM) Aβ
A collection of compounds and their measured EC50
Assay endpoint: EC50

In [3]: df
Out[3]:
                                   compound  reported_value
0  Cc1ncsc1C1=C(c2scnc2C)c2ccc(OCCCc3ccccc3)cc2C1=O         < 20 µM
1     Cc1ccccc1C1=C(c2ccccc2)C(=O)c2ccccc21    20 to 100 µM
2  Cc1ncsc1C1=C(c2ccc(CN3CCN(C)CC3)cc2)c2ccccc2C1=O    20 to 100 µM
3  Cc1ncsc1C1=C(c2cccnc2)C(=O)c2cc(NC3CCCN(c4ccccc4)C3)ccc21 (centres unmarked)         < 20 µM
4  CN1CCN(c2ccc(C3=C(c4ccccc4)c4ccccc4C3=O)cc2)CC1         < 20 µM
5  Cc1ncsc1C1=C(c2c[nH]nn2)C(=O)c2cc(OCCCc3ccccc3)ccc21         < 20 µM
6  CC(C)(C)c1cc(C2=C(c3ccccc3)C(=O)c3ccccc32)cc(C(C)(C)C)c1        > 250 µM
7  Cc1ncsc1C1=C(c2cnn(C3CCN(C)CC3)c2)C(=O)c2cc(OCCCc3ccccc3)ccc21         < 20 µM

Source: patent EP4745117A1
